Could you please report measured Emax for the items listed next?
- targetEntity: human V2 receptor (Homo sapiens, UniProt P30518)
- Construct: A DNA fragment containing a human V2 receptor code region; expressed in transfected cells
- Sequence (P30518 whole entry, the tested form may be a part): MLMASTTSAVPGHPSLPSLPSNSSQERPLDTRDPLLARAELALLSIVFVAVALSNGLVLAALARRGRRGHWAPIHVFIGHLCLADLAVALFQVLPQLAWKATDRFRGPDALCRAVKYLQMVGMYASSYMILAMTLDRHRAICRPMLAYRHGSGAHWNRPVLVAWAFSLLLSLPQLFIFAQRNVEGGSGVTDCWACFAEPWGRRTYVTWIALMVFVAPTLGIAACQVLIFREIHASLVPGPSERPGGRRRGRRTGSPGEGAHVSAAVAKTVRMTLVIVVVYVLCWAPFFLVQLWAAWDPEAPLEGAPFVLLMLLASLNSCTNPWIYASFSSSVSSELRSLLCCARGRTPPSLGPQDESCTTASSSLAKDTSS
- assayProtocol: cAMP production test in V2 receptor expression cell
- Type: cell-based
- measurementContext: maximum reaction by 8-AVP assumed to be 100%
Please give a number only; it is taken to be in %.

Recorded Emax of CC1(C(=O)O)CCN(C(=O)c2ccc(N3CCCC3)cc2Cl)c2ccccc2C1 (racemic) , please.
102

What value of measured Emax is listed for CC(CO)NC(=O)C1(C)CCN(C(=O)c2ccc(-n3cccn3)cc2Cl)c2ccccc2C1 (racemic) ?
97

Would you mind telling me what Emax value was observed for CC1(C(=O)NCC(N)=O)CCN(C(=O)c2ccc(-n3cccn3)cc2Cl)c2ccccc2C1 (racemic) ?
93

Returns the measured Emax for the input compound. Input: COC(=O)C1(C)CCN(C(=O)c2ccc(-n3ccc(C)n3)cc2C(F)(F)F)c2ccccc2C1 (single isomer, unassigned)
102

# lookup: Emax of Cc1ccn(-c2ccc(C(=O)N3CCC(C)(C(=O)NC(C)CO)Cc4ccccc43)c(C(F)(F)F)c2)n1 (single isomer, unassigned)
102

Fill in the blank: the reported Emax of CCNC(=O)CNC(=O)C1(C)CCN(C(=O)c2ccc(N3CCCC3)cc2Cl)c2ccccc2C1 (racemic) is ____.
101

Which measured Emax value corresponds to Cc1cc(N2CCCC2)ccc1C(=O)N1CCC(F)(C(=O)O)Cc2ccccc21 (single isomer, unassigned) ?
102

----------
Provide the reported pEC50 of each item.
- targetEntity: human V2 receptor (Homo sapiens, UniProt P30518)
- Construct: A DNA fragment containing a human V2 receptor code region
- assayProtocol: cAMP production test in V2 receptor expression cell
- measurementContext: human V2 receptor expression cell, 30 minutes at room temperature, HTRF cAMP kit
Interpret pEC50 as the negative base-10 log of the concentration measured in mol/L.

Can you look up the measured pEC50 of CC1(C(=O)O)CCN(C(=O)c2ccc(N3CCCC3)cc2Cl)c2ccccc2C1 (racemic) for me?
9.30

Query: pEC50; subject: Cc1nnc(NC(=O)C2(C)CCN(C(=O)c3ccc(N4CCCC4)cc3Cl)c3ccccc3C2)o1 (racemic)
9.05

Request the reported pEC50 associated with Cc1cc(N2CCCC2)ccc1C(=O)N1CCC(C)(C(=O)NC(C)C(N)=O)Cc2ccccc21 (single isomer, unassigned)
9.13

Fill in the blank: the reported pEC50 of CC(C)C(NC(=O)C1(C)CCN(C(=O)c2ccc(OCCCF)cc2Cl)c2ccccc2C1)C(N)=O (racemic) is ____.
8.72

Can you look up the measured pEC50 of COC(=O)C1(C)CCN(C(=O)c2ccc(-c3ncco3)cc2Cl)c2ccccc2C1 (racemic) for me?
7.70

Please look up its pEC50: CCN(CC)C(=O)CNC(=O)C1(C)CCN(C(=O)c2ccc(N3CCCC3)cc2Cl)c2ccccc2C1 (racemic)
8.18

Would you kindly share the measured pEC50 for CCCOc1ccc(C(=O)N2CCC(C)(C(=O)O)Cc3ccccc32)c(Cl)c1 (racemic) ?
9.05

Returns the measured pEC50 for the input compound. Input: Cc1ccn(-c2ccc(C(=O)N3CC(C)C(C)(C(=O)NCC(N)=O)Cc4ccccc43)c(C)c2)n1 (racemic)
9.25

Look up pEC50 for this compound: Cc1cc(N2CCC(C)C2)ccc1C(=O)N1CCC(F)(C(N)=O)Cc2ccccc21 (racemic)
9.39

Recorded pEC50 for COC(=O)C1(C)CCN(C(=O)c2ccc(-n3ccc(C)n3)cc2C(F)(F)F)c2ccccc2C1 (single isomer, unassigned) , please?
8.85

Given the entry COC(=O)C1Cc2ccccc2N(C(=O)c2ccc(N3CCCC3)cc2Cl)CC1C (racemic) , report its measured pEC50.
9.10

Query: pEC50; subject: CC1CN(C(=O)c2ccc(N3CCCC3)cc2Cl)c2ccccc2CC1C(=O)NCC(N)=O (racemic)
9.40

So what does the record say about pEC50 for CC1CN(C(=O)c2ccc(N3CCCC3)cc2Cl)c2ccccc2CC1(F)C(=O)NCC(N)=O (racemic) ?
8.96

Requested field: pEC50. Item: C[C@@H]1CN(C(=O)c2ccc(N3CCCC3)cc2Cl)c2ccccc2CC1(F)C(=O)O (mixture of isomers)
9.70

Quick one: pEC50 of CC1(C(=O)O)CCN(C(=O)c2ccc(-c3ncco3)cc2Cl)c2ccccc2C1 (racemic) ?
8.22

----------
assayEndpoint: IC50 (µM)
The figure you give is taken to be in µM; do not add the unit.

Field: IC50 (CYP2C9 (Homo sapiens)). Entry: Cc1ccn(-c2ccc(C(=O)N3CCC(C)(C(=O)NC(C)CO)Cc4ccccc43)c(C(F)(F)F)c2)n1 (single isomer, unassigned) [Example 89]
40.2

Missing value: IC50, CYP2C9 (Homo sapiens), entry CC(C)NC(=O)C[C@H]1CCCN(C(=O)c2ccc(N3CCCC3)cc2Cl)c2ccccc21 [comparative compound 2, reference compound] . Fill in?
0.2

----------
- targetEntity: CYP3A4 (Homo sapiens, UniProt P08684)
- Sequence (P08684 whole entry): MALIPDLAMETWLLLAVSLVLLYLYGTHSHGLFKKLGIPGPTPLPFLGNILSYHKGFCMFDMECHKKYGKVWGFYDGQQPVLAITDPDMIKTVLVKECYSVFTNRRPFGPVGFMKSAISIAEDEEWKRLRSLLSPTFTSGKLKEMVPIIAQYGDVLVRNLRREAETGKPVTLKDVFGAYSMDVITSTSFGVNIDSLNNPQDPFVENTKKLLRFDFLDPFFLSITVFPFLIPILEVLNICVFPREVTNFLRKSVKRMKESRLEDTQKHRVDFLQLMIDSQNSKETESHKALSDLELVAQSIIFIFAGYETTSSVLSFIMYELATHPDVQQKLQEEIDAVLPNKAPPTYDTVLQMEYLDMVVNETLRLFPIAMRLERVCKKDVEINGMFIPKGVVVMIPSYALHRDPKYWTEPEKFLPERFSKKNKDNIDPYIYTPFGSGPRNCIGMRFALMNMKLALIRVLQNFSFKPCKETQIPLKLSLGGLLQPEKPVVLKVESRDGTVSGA
Could you please report measured IC50 for the items listed next?

Return IC50 measured with CYP3A4 (Homo sapiens, UniProt P08684) given this molecule: CC(C)NC(=O)C[C@H]1CCCN(C(=O)c2ccc(N3CCCC3)cc2Cl)c2ccccc21 [comparative compound 2, reference compound]
0.4 µM

What is its IC50 for CYP3A4 (Homo sapiens, UniProt P08684)? Entry: Cc1ccn(-c2ccc(C(=O)N3CCC(C)(C(=O)NC(C)CO)Cc4ccccc43)c(Cl)c2)n1 (single isomer, unassigned)
> 50 µM

Given the entry Cc1ccn(-c2ccc(C(=O)N3CCC(C)(C(=O)NC(C)CO)Cc4ccccc43)c(C(F)(F)F)c2)n1 (single isomer, unassigned) , what IC50 was observed with CYP3A4 (Homo sapiens, UniProt P08684)?
> 50 µM

----------
- targetEntity: human V2 receptor (Homo sapiens)
- Construct: A DNA fragment containing a human V2 receptor code region; expressed in transfected cells
- assayProtocol: cAMP production test in V2 receptor expression cell
- Type: cell-based
- measurementContext: maximum reaction by 8-AVP assumed to be 100%
assayEndpoint: Emax (%)
Report the value in % with no unit label.

Dear colleague, I am looking for the recorded Emax of the following molecule: CCN(CC)C(=O)CNC(=O)C1(C)CCN(C(=O)c2ccc(N3CCCC3)cc2Cl)c2ccccc2C1 (racemic)
100

Please report the recorded Emax for CC1(C(=O)O)CCN(C(=O)c2ccc(-c3ncco3)cc2Cl)c2ccccc2C1 (racemic) .
73

Item under review: Cc1ccn(-c2ccc(C(=O)N3CC(C)C(C)(C(=O)NCC(N)=O)Cc4ccccc43)c(C)c2)n1 (racemic) . Reported Emax?
102

What Emax value was documented for this molecule, CCCOc1ccc(C(=O)N2CCC(C)(C(=O)OC)Cc3ccccc32)c(Cl)c1 (racemic) ?
104

So what does the record say about Emax for Cc1ccn(-c2ccc(C(=O)N3CCC(C)(C(=O)NC(C)CO)Cc4ccccc43)c(Cl)c2)n1 (single isomer, unassigned) ?
101

Find the recorded Emax belonging to COC(=O)C1(C)CCN(C(=O)c2ccc(N3CCCC3)cc2Cl)c2ccccc2C1 (racemic) and report it.
102

Fill in: Emax of CC1(C(=O)O)CCN(C(=O)c2ccc(-n3cccn3)cc2Cl)c2ccccc2C1 (racemic) is ___
85

----------
- targetEntity: human V2 receptor (Homo sapiens, UniProt P30518)
- Construct: A DNA fragment containing a human V2 receptor code region; expressed in transfected cells
- assayProtocol: cAMP production test in V2 receptor expression cell
- Format: cell-based
- measurementContext: maximum reaction by 8-AVP assumed to be 100%
assayEndpoint: Emax (%)
Number only, in %; omit the unit.

Name the reported Emax value associated with the molecule Cc1ccn(-c2ccc(C(=O)N3C[C@@H](C)C(C)(C(=O)O)Cc4ccccc43)c(C)c2)n1 (mixture of isomers)
101

May I ask what Emax has been recorded for C[C@@H]1CN(C(=O)c2ccc(N3CCCC3)cc2Cl)c2ccccc2CC1(F)C(=O)O (mixture of isomers) ?
102

Which value of Emax has been reported for Cc1cc(N2CCCC2)ccc1C(=O)N1CCC(C)(C(=O)O)Cc2ccccc21 (single isomer, unassigned) in the records?
102

Consider the molecule CC1(C(=O)NCC(N)=O)CCN(C(=O)c2ccc(-c3ncco3)cc2Cl)c2ccccc2C1 (racemic) and give its measured Emax.
88

----------
Record form. Attribute: Emax. Fill in for each entry.
- targetEntity: human V2 receptor (Homo sapiens)
- Construct: A DNA fragment containing a human V2 receptor code region; expressed in transfected cells
- assayProtocol: cAMP production test in V2 receptor expression cell
- Format: cell-based
- measurementContext: maximum reaction by 8-AVP assumed to be 100%
Express it in %; write the number only.

Query (compound): CC1CN(C(=O)c2ccc(N3CCCC3)cc2Cl)c2ccccc2CC1C(=O)NCC(N)=O (racemic) [Example 99] ; field requested: Emax
102

Field request: Emax | item: CC(NC(=O)C1(C)CCN(C(=O)c2ccc(N3CCCC3)cc2C(F)(F)F)c2ccccc2C1)C(N)=O (single isomer, unassigned) [Example 90]
101

So what does the record say about Emax for Cc1cc(N2CCCC2)ccc1C(=O)N1CCC(C)(C(=O)NC(C)C(N)=O)Cc2ccccc21 (single isomer, unassigned) [Example 68] ?
102

Requested read-out: Emax. Entry: Cc1cc(N2CCC(C)C2)ccc1C(=O)N1CCC(F)(C(=O)NCC(N)=O)Cc2ccccc21 (racemic) [Example 95]
102

Fill blank: measured Emax of the compound CC(CO)NC(=O)C1(C)CCN(C(=O)c2ccc(-c3ncco3)cc2Cl)c2ccccc2C1 (racemic) [Example 85] is ____.
94

Would you mind telling me what Emax value was observed for CCCOc1ccc(C(=O)N2CCC(C)(C(=O)O)Cc3ccccc32)c(Cl)c1 (racemic) [Example 50] ?
100

So what does the record say about Emax for COC(=O)C1(F)CCN(C(=O)c2ccc(N3CCCC3)cc2C)c2ccccc2C1 (single isomer, unassigned) [Example 38] ?
101

# get_value(readout='Emax', item= Cc1nnc(NC(=O)C2(C)CCN(C(=O)c3ccc(N4CCCC4)cc3Cl)c3ccccc3C2)o1 (racemic) [Example 79] )
100

If you can, please state the reported Emax value of CC(NC(=O)C1(C)CCN(C(=O)c2ccc(OCC(F)(F)F)cc2Cl)c2ccccc2C1)C(N)=O (single isomer, unassigned) [Example 76] .
102

// Emax lookup, key: CC(CO)NC(=O)C1Cc2ccccc2N(C(=O)c2ccc(N3CCCC3)cc2Cl)CC1C (racemic) [Example 98]
101

Give its Emax value. Item: COC(=O)C1(C)CCN(C(=O)c2ccc(-n3cccn3)cc2Cl)c2ccccc2C1 (racemic) [Example 34]
98

Quick one: Emax for CCCOc1ccc(C(=O)N2CCC(C)(C(=O)NC(C)CO)Cc3ccccc32)c(Cl)c1 (racemic) [Example 83] ?
100

Name the reported Emax value associated with the compound CC(CO)NC(=O)C1(F)Cc2ccccc2N(C(=O)c2ccc(N3CCCC3)cc2Cl)CC1C (racemic) [Example 100]
100

Using the record for COC(=O)C1(C)CCN(C(=O)c2ccc(-c3ncco3)cc2Cl)c2ccccc2C1 (racemic) [Example 33] , report its Emax.
96
